Target: Adrenergic receptor beta (Cavia porcellus)
Assay: Beta adrenergic receptor blocking activity measured by the chronotropic effect was determined 1 hr after pretreatment of the right atria in guinea pig
true (1) means recorded pA2 is 7 or above; false (0) means it is below 7.

{"compound": "C=C(c1ccccc1OCC(O)CNC(C)(C)C)n1cccn1 (configuration not stated)", "target_system": "Adrenergic receptor beta (Cavia porcellus)", "label": "true (1)"}
{"compound": "C=C(c1cccc(OC)c1OCC(O)CNC(C)C)n1ccnc1 (configuration not stated)", "target_system": "Adrenergic receptor beta (Cavia porcellus)", "label": "false (0)"}
{"compound": "C=C(c1ccccc1OCC(O)CNC(C)C)n1c(C)cnc1CC (configuration not stated)", "target_system": "Adrenergic receptor beta (Cavia porcellus)", "label": "false (0)"}
{"compound": "C=C(c1cc(Cl)cc(C)c1OCC(O)CNC(C)(C)C)n1ccnc1 (configuration not stated)", "target_system": "Adrenergic receptor beta (Cavia porcellus)", "label": "false (0)"}
{"compound": "C=C(c1ccccc1OCC(O)CNC(C)C)n1cnc(C(=O)OCC)c1C (configuration not stated)", "target_system": "Adrenergic receptor beta (Cavia porcellus)", "label": "false (0)"}

###

Biological target: Adrenergic receptor beta (Cavia porcellus)
Assay: Beta adrenergic receptor blocking activity measured by the chronotropic effect was determined 1 hr after pretreatment of the right atria in guinea pig
pA2 values by entry
metric_name: pA2

{"compound": "CC(C)=C(c1cc(Cl)ccc1OCC(O)CNC(C)C)n1ccnc1 (centres undefined)", "endpoint_value": 4.9}
{"compound": "C=C(c1cc(Cl)cc(Cl)c1OCC(O)CNC(C)C)n1ccnc1 (centres undefined)", "endpoint_value": 6.5}
{"compound": "C=C(c1c(C)ccc(Cl)c1OCC(O)CNC(C)(C)C)n1ccnc1 (centres undefined)", "endpoint_value": 5.04}
{"compound": "C=C(c1c(C)ccc(C)c1OCC(O)CNC(C)(C)C)n1ccnc1 (centres undefined)", "endpoint_value": 6.36}
